Collected set of IC50 measured with Hepatocyte growth factor receptor (Homo sapiens, UniProt P08581) across studies.

Answered cases to consult:
{"compound": "O=C(NCc1cccc(Cl)c1)c1cnc2c(c1)N(Cc1cc(Cl)ccc1Cl)CCN2", "IC50": "10 to 100 µM"}
{"compound": "Cn1cc(-c2cc(Oc3ccc(NC(=O)Nc4cc(C(C)(C)C)nn4-c4cccc(CO)c4)c(F)c3)ccn2)cn1", "IC50": "< 0.1 µM"}
{"compound": "CN1CCN(c2ccc(-c3cnc4c(c3)C(Oc3cccc(Cl)c3)CCN4)cn2)CC1 (centres unmarked)", "IC50": "1 to 10 µM"}
{"compound": "Cn1cc(-c2ccc3nnc(Sc4ccc5nccc(OCCO)c5c4)n3n2)cn1", "IC50": "< 0.1 µM"}
{"compound": "CCn1cnc(-c2cc3nccc(Oc4ccc(NC(=O)c5cc6ncsc6n(-c6ccc(F)cc6)c5=O)cc4F)c3s2)c1", "IC50": "0.01 to 0.1 µM"}
{"compound": "CCOC(=O)Nc1cccc(Cn2nc(-c3cccc(OCCCCO)c3)ccc2=O)c1", "IC50": "0.01 to 1 µM"}
{"compound": "O=C(O)c1ccc(-c2cnc3c(c2)N(Cc2cc(F)ccc2F)CCN3)cn1", "IC50": "1 to 10 µM"}

// query IC50 of "CC(=O)Nc1ccc(-c2cnc3c(c2)N(Cc2cc(Cl)ccc2C(F)(F)F)CCN3)cc1" on Hepatocyte growth factor receptor (Homo sapiens, UniProt P08581)?
// result > 100 µM

---

pIC50: −log10 of the molar value.
Collected set of pIC50 measured with Hepatocyte growth factor receptor (Homo sapiens, UniProt P08581) across studies.

{"molecule": "CC(C)n1cc(C(=O)Nc2ccc(Oc3ccnc4cc(OCCCN5CCOCC5)c5c(c34)OCCO5)c(F)c2)c(=O)n(-c2ccc(F)cc2)c1=O", "target-of-assay": "Hepatocyte growth factor receptor (Homo sapiens, UniProt P08581)", "pIC50": "≥ 7.30"}
{"molecule": "Cn1cc(C(=O)Nc2cc(F)c(Oc3ccnc(-c4cnn(C)c4)c3)cc2F)c(=O)c(-c2ccc(F)cc2)c1", "target-of-assay": "Hepatocyte growth factor receptor (Homo sapiens, UniProt P08581)", "pIC50": "≥ 7.00"}

// query What value of pIC50 has been recorded for this entry: CC(c1ccc2nc(NC(=O)C3CC3)cn2n1)c1nnc2ccc(-c3ccc(S(C)(=O)=O)cc3)cn12 (centres unmarked)
// result > 7.52

// query What value of pIC50 has been recorded for this entry: "CCN1Cc2c(C#N)cccc2O[C@@H](C)CNC(=O)c2c(N)nn3ccc1nc23"
// result 8.01

// query What value of pIC50 has been recorded for this entry: "Nc1ncc(-c2cnn(C3CCNCC3)c2)cc1N1CCc2ccccc2C1"
// result 6.00 to 7.00

// query What value of pIC50 has been recorded for this entry: "Cc1oc(C(C)(C)C)cc1NC(=O)Nc1ccc(Oc2ccnc(-c3cnn(C)c3)c2)cc1F"
// result > 5.00

// query What value of pIC50 has been recorded for this entry: "COc1cc2nccc(Oc3c(F)cc(NC(=O)c4cnccc4OC)cc3F)c2cc1OC"
// result ≥ 7.00

// query What value of pIC50 has been recorded for this entry: "N#Cc1ccc2nc(-c3cc(-c4cnn(C5CCNCC5)c4)cnc3N)sc2c1"
// result 6.00 to 7.00

---

Collected set of pIC50 measured with Hepatocyte growth factor receptor (Homo sapiens, UniProt P08581) across studies.
pIC50: −log10 of the molar value.

Answered cases to consult:
{"compound": "Fc1cccc(-c2ccc3nnc(Sc4ccc5ncccc5c4)n3n2)c1", "pIC50": "> 7.00"}
{"compound": "CCOC(=O)Nc1cccc(Cn2nc(-c3ccc(OCCCOC)cc3)ccc2=O)c1", "pIC50": "6.00 to 8.00"}
{"compound": "Cc1ccc2sc(-c3cc(-c4cnn(C5CCNCC5)c4)cnc3N)nc2c1", "pIC50": "6.00 to 7.00"}
{"compound": "CCOc1c(C(=O)Nc2ccc(Oc3ccnc(N)c3Cl)c(F)c2)c(=O)n(-c2ccc(F)cc2)c2scnc12", "pIC50": "> 8.00"}
{"compound": "CCOc1cc2nccc(Oc3ccc(NC(=O)c4c(OCC)ccn(-c5ccc(F)cc5)c4=O)cc3F)c2c2c1OCCO2", "pIC50": "≥ 7.30"}
{"compound": "Nc1ncc(-c2cccc(C(=O)NCc3ccco3)c2)cc1-c1nc2ccccc2s1", "pIC50": "4.70 to 6.00"}
{"compound": "CCOc1ccn(-c2ccc(F)cc2)c(=O)c1C(=O)Nc1ccc(Oc2ccnc3ccc4c(c23)OCCO4)cc1F", "pIC50": "≥ 7.30"}

The record that follows has no pIC50 shown yet.
// query pIC50 of Nc1ncc(-c2cnn([C@@H]3CNC(CO)C3)c2)cc1-c1nc2ccccc2s1 (mixture of isomers) on Hepatocyte growth factor receptor (Homo sapiens, UniProt P08581)?
// result ≥ 7.00

---

Collected set of pIC50 measured with Hepatocyte growth factor receptor (Homo sapiens, UniProt P08581) across studies.
pIC50: −log10 of the molar value.

Answered cases to consult:
{"substance-smiles": "COC[C@H](C)Oc1nc2c(Oc3c(F)cc(NC(=O)c4cnccc4OC)cc3F)ccnc2cc1OC", "pIC50": "≥ 7.00"}
{"substance-smiles": "OCc1ccc(-c2ccc3nnc(Cc4ccc5ncccc5c4)n3n2)cc1", "pIC50": "> 7.00"}
{"substance-smiles": "CCN(CC)CCn1cc(-c2cnc3ccc(Cc4nnc5ccc(C)nn45)cc3c2)cn1", "pIC50": "> 7.00"}
{"substance-smiles": "Nc1cccc(-c2cnc3[nH]cc(C(=O)c4cccc(O)c4F)c3c2)c1", "pIC50": "≥ 5.00"}
{"substance-smiles": "CC(C)(c1ccc2ncccc2c1)c1nnc2ccc(-c3ccccc3)nn12", "pIC50": "4.30 to 5.00"}

// query What value of pIC50 has been recorded for this entry: "Clc1ccc(Nc2ccnc3[nH]ccc23)cc1Cl"
// result ≥ 5.00

// query What value of pIC50 has been recorded for this entry: "COc1cc2c(Oc3c(F)cc(NC(=O)c4cnccc4OC)cc3F)ccnc2cc1OCCN1CCOCC1"
// result ≥ 7.00

// query What value of pIC50 has been recorded for this entry: "Nc1ncc(-c2cccc(C(=O)N3CCC(N4CCCC4)CC3)c2)cc1-c1nc2ccccc2s1"
// result 6.00 to 7.00

---

pIC50: −log10 of the molar value.
Collected set of pIC50 measured with Hepatocyte growth factor receptor (Homo sapiens) across studies.

Answered cases to consult:
{"substance-smiles": "Oc1cccc(Cc2c[nH]c3ncc(-c4cccnc4)cc23)c1F", "pIC50": "≥ 5.00"}
{"substance-smiles": "CCOc1cc2nccc(Oc3ccc(NC(=O)c4cn(C(C)C)c(=O)n(-c5ccc(F)cc5)c4=O)cc3F)c2c2c1OCCO2", "pIC50": "6.30 to 7.30"}
{"substance-smiles": "Cn1cc(-c2cc(Oc3cc(F)c(NC(=O)c4cccn(-c5ccc(F)cc5)c4=O)cc3F)ccn2)cn1", "pIC50": "≥ 7.00"}
{"substance-smiles": "N#Cc1ccc(C2=NN(Cc3cccc(-c4ncc(N)cn4)c3)C(=O)SC2)cc1", "pIC50": "6.00 to 8.00"}
{"substance-smiles": "CP(C)(=O)c1cccc(-c2cnc3nnn(Cc4ccc5ncccc5c4)c3n2)c1", "pIC50": "7.70 to 7.96"}
{"substance-smiles": "O=C(Nc1cn2nc(Sc3nnc4ccc(Br)cn34)ccc2n1)C1CC1", "pIC50": "7.23 to 7.52"}

// query What value of pIC50 has been recorded for this entry: "Nc1ncc(-c2cnn(C3CCNCC3)c2)cc1-c1nc2cc(C(F)(F)F)ccc2s1"
// result 6.00 to 7.00

// query What value of pIC50 has been recorded for this entry: "Cc1ccc2nnc(Cc3ccc4ncc(-c5cnc[nH]5)cc4c3)n2n1"
// result 6.00 to 7.00

---

pIC50: −log10 of the molar value.
Collected set of pIC50 measured with Hepatocyte growth factor receptor (Homo sapiens) across studies.

{"substance-smiles": "CC(=O)N1CC(Cn2cc(-c3cnc4ccc(Cc5nnc6ccc(C)nn56)cc4c3)cn2)C1", "target-of-assay": "Hepatocyte growth factor receptor (Homo sapiens)", "meas-value": "> 7.00"}
{"substance-smiles": "CS(=O)(=O)Nc1cccc(-c2cnc3[nH]cc(C(=O)c4c(F)ccc(OC(F)F)c4F)c3c2)c1", "target-of-assay": "Hepatocyte growth factor receptor (Homo sapiens)", "meas-value": "≥ 5.00"}
{"substance-smiles": "COc1cc2c(Oc3cc(F)c(NC(=O)c4cnccc4OC)cc3F)ccnc2cc1OCCCN1CCOCC1", "target-of-assay": "Hepatocyte growth factor receptor (Homo sapiens)", "meas-value": "≥ 7.00"}
{"substance-smiles": "COc1ccn(-c2ccc(F)cc2)c(=O)c1C(=O)Nc1ccc(Oc2ccnc3cc(OCCCN4CCCCC4)c4c(c23)OCCO4)c(F)c1", "target-of-assay": "Hepatocyte growth factor receptor (Homo sapiens)", "meas-value": "≥ 7.30"}
{"substance-smiles": "O=C(NC1CCCCC1)c1cnc2c(c1)N(Cc1cc(Cl)ccc1Cl)CCN2", "target-of-assay": "Hepatocyte growth factor receptor (Homo sapiens)", "meas-value": "< 4.00"}
{"substance-smiles": "CC(=O)Nc1ccc(-c2cnc(N)c(-c3cc4c(Cl)ccc(F)c4cn3)c2)cc1", "target-of-assay": "Hepatocyte growth factor receptor (Homo sapiens)", "meas-value": "4.70 to 6.00"}
{"substance-smiles": "Cc1c(Oc2ccnc(-c3cnn(C)c3)c2)ccc(NC(=O)Nc2cnn(C(C)(C)C)c2)c1F", "target-of-assay": "Hepatocyte growth factor receptor (Homo sapiens)", "meas-value": "> 6.00"}
{"substance-smiles": "CNCCOc1cc2nccc(Oc3cc(F)c(NC(=O)c4cnccc4OC)cc3F)c2cc1OC", "target-of-assay": "Hepatocyte growth factor receptor (Homo sapiens)", "meas-value": "≥ 7.00"}
{"substance-smiles": "CN1CCN(Cc2cc(Cl)ccc2Cl)c2cc(I)cnc21", "target-of-assay": "Hepatocyte growth factor receptor (Homo sapiens)", "meas-value": "< 4.00"}
{"substance-smiles": "COc1cc2c(Oc3ccc(NC(=O)c4cc5cnn(C)c5n(-c5ccc(F)cc5)c4=O)cc3F)ccnc2cc1OCCCN1CCOCC1", "target-of-assay": "Hepatocyte growth factor receptor (Homo sapiens)", "meas-value": "6.00 to 7.00"}

The record that follows has no pIC50 shown yet.
// query pIC50 of "CP(C)(=O)c1ccc(-c2cnc3nnn(Cc4ccc5ncccc5c4)c3n2)cc1F" on Hepatocyte growth factor receptor (Homo sapiens)?
// result > 8.00
